Here the recorded glycan array binding signal (z-score) is given for each entry.
systemTested: Fuc(a1-3)[Gal3S(b1-4)]GlcNAc6S
protocol: glycan array binding signal (z-score within array); higher = stronger binding
recordedConditions: glycan notation: IUPAC condensed, linker removed
This is one part of a sample in which the strongest signals are shown more often than they occur.
measuredEndpoint: glycan array binding signal (z-score)

1) Pwp1 (Candida glabrata) (protein) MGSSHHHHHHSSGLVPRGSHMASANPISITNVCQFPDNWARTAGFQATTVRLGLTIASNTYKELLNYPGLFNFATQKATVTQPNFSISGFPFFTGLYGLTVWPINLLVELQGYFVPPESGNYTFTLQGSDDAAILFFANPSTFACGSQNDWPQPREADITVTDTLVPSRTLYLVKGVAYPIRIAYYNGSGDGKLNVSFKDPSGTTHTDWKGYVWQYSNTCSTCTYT = 1.94
2) cupB6 (Pseudomonas aeruginosa), Q02SP7 (protein) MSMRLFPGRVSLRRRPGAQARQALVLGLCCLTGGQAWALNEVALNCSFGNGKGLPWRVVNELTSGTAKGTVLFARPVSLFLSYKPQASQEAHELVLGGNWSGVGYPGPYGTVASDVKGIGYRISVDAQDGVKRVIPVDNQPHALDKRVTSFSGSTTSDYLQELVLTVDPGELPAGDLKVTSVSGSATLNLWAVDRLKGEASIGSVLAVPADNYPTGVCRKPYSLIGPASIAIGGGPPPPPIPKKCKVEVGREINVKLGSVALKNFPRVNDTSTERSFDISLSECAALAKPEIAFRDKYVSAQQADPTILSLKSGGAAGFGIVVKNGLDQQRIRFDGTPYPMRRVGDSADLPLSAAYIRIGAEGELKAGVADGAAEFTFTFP = 0.36
